Tested on: CDK11;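 further: KINOMEscan kinase panel screen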
Construct: gene CDK19
Details: concentration: 1 μM, replicates: in singlicate; n = 1
Examples of molecules with documented %Inh follow.
Field: numeric (%). Do not append units.

Sample records with %Inh:
molecule	result-unit	numeric-value
Cc1ccc(NC(=O)Nc2ccccc2)cc1-c1ccc(C(=O)Nc2ccncc2)cc1 [GSK1398471]	%	11
Cc1nccc(-c2c(-c3ccc(F)cc3)ncn2CCCN2CCOCC2)n1.Cl [SB-282975]	%	11
Cc1ccc(-c2nc(Nc3ccncc3)c3ccccc3n2)s1 [GSK189015]	%	9
O=C1NC(=O)C(c2ccc(Cl)cc2)=C1Nc1ccc(O)cc1 [SB-340867]	%	0

Input line: Could you please provide reported %Inh for CNc1nc(-c2ccc3c(N)n[nH]c3c2)cc(N2C[C@@H](C(=O)Nc3ccccc3)CC[C@H]2C)n1 [GSK2298859] ? Thanks!
Output line: 0

Input line: Could you please provide reported %Inh for Cc1c(Cn2c(C)c(C)n3c(=O)cc(N4CCOCC4)nc23)cccc1C(F)(F)F [GSK2328680] ? Thanks!
Output line: 0

Input line: Could you please provide reported %Inh for NS(=O)(=O)c1cccc(N/C=C2\C(=O)Nc3ccc(S(=O)(=O)Cc4c(Cl)cccc4Cl)cc32)c1 [GSK398099] ? Thanks!
Output line: 0

Input line: Could you please provide reported %Inh for COc1nccc(-c2c(-c3ccc(F)cc3)ncn2CCCN2CCOCC2)n1 [SB-282852] ? Thanks!
Output line: 3

Input line: Could you please provide reported %Inh for CNc1cc(-c2ccc3c(N)n[nH]c3c2)nc(N)n1 [GSK2224810] ? Thanks!
Output line: 8
